test: Plasma concentration in mouse at 30 mg/kg, po after 0.5 hrs by LC/MS-MS analysis; format: ADME, organism-based
REPORTED PROPERTY: concentration at 0.5 h (µM)
Return type: number; implicit unit µM.

SUBSTANCE SMILES	concentration at 0.5 h [µM]
COc1ccc2[nH]nc(Nc3cccc(Cl)c3)c2c1	5.21

Item Fc1ccc2[nH]nc(Nc3cccc(Cl)c3)c2c1 has what recorded concentration at 0.5 h? 14.1

Also need Clc1cccc(Nc2n[nH]c3ccccc23)c1 , thanks. 12.7

For Fc1cccc(Nc2n[nH]c3ccccc23)c1 then? 9.45
